# protocol: fluorescence excitation/emission and quantum yield of benzo[c]xanthene dyes
# Assay type: physicochemical
# recordedConditions: base form
// FLUORESCENCE, BASE EMIT lookup, one value per entry
Output spec: scalar in NM, unitless text.

Examples with their reported FLUORESCENCE, BASE EMIT follow.
1) CCNc1cc2c(cc1C)C1(OC(=O)c3ccccc31)c1ccc3cc(O)ccc3c1O2 (stereo not shown) [Compound 7] ... 629
2) CN(C)c1ccc2c(c1)Oc1c(ccc3cc(O)ccc13)C21OC(=O)c2cc(C(=O)O)ccc21 (stereo not shown) [Compound 8] ... 636
3) CCN(CC)c1ccc2c(c1)Oc1c(ccc3cc(O)ccc13)C21OC(=O)c2ccc(C(=O)O)cc21 (stereo not shown) [Compound 9] ... 633

Kindly review the next compound as well.
Please give measured FLUORESCENCE, BASE EMIT of the following entry: O=C1OC2(c3ccc(O)cc3Oc3c2ccc2cc(O)ccc32)c2ccccc21 (stereo not shown) [Compound 1] 618

----------
The compounds listed here are annotated with their pKa.
# protocol: physchem
# recordedConditions: 40 mm potassium phosphate buffer
Reply: number alone, nothing else.

1. CCN(CC)c1ccc2c(c1)Oc1c(ccc3cc(O)ccc13)C21OC(=O)c2ccccc21 (stereo not shown) [Compound 6] ... 7.5
2. CN(C)c1ccc2c(c1)Oc1c(ccc3cc(O)ccc13)C21OC(=O)c2ccccc21 (stereo not shown) [Compound 5] ... 7.6
3. CN(C)c1ccc2c(c1)Oc1c(ccc3cc(O)ccc13)C21OC(=O)c2cc(C(=O)O)ccc21 (stereo not shown) [Compound 8] ... 7.5

Now consider the entry below.
Respond only with pKa recorded for O=C(O)c1ccc2c(c1)C1(OC2=O)c2cc(Cl)c(O)cc2Oc2c1ccc1cc(O)ccc21 (stereo not shown) [Compound 3] 7.65

----------
# protocol: absorption spectra (maxima and extinction coefficients) of benzo[c]xanthene dyes
# Format: physicochemical
# recordedConditions: acid form, shorter-wavelength maximum
reportedEndpoint: ABSORPTION, ACID MAXIMA (first) (NM)
Numeric only. Scale: NM

Item CN(C)c1ccc2c(c1)Oc1c(ccc3cc(O)ccc13)C21OC(=O)c2ccccc21 (centres unmarked) : provide ABSORPTION, ACID MAXIMA (first) 515

Please give the documented ABSORPTION, ACID MAXIMA (first) of CCN(CC)c1ccc2c(c1)Oc1c(ccc3cc(O)ccc13)C21OC(=O)c2ccccc21 (centres unmarked) 518

Look up ABSORPTION, ACID MAXIMA (first) of O=C1OC2(c3ccc(O)cc3Oc3c2ccc2cc(O)ccc32)c2ccccc21 (centres unmarked) and report it. 480

Identify the reported ABSORPTION, ACID MAXIMA (first) for the following entry. O=C(O)c1ccc2c(c1)C1(OC2=O)c2cc(Cl)c(O)cc2Oc2c1ccc1cc(O)ccc21 (centres unmarked) 485

Name the recorded ABSORPTION, ACID MAXIMA (first) of the item CCN(CC)c1ccc2c(c1)Oc1c(ccc3cc(O)ccc13)C21OC(=O)c2ccc(C(=O)O)cc21 (centres unmarked) in your answer. 517

----------
# protocol: absorption spectra (maxima and extinction coefficients) of benzo[c]xanthene dyes
# Type: physicochemical
# recordedConditions: acid form, longer-wavelength maximum
Entries and their EXTINCTION COEFFICIENT, ACID MAXIMA (second) values follow.

1) O=C1OC2(c3ccc(O)cc3Oc3c2ccc2cc(O)ccc32)c2ccccc21 (stereo not shown) ... 28.2 10^3 cm^-1 M^-1
2) O=C(O)c1ccc2c(c1)C1(OC2=O)c2cc(Cl)c(O)cc2Oc2c1ccc1cc(O)ccc21 (stereo not shown) ... 25.3 10^3 cm^-1 M^-1
3) CN(C)c1ccc2c(c1)Oc1c(ccc3cc(O)ccc13)C21OC(=O)c2cc(C(=O)O)ccc21 (stereo not shown) ... 25.7 10^3 cm^-1 M^-1
4) CN(C)c1ccc2c(c1)Oc1c(ccc3cc(O)ccc13)C21OC(=O)c2ccccc21 (stereo not shown) ... 21.6 10^3 cm^-1 M^-1

Output EXTINCTION COEFFICIENT, ACID MAXIMA (second) of O=C(O)c1ccc2c(c1)C(=O)OC21c2cc3c4c(c2Oc2c1ccc1cc(O)ccc21)CCCN4CCC3 (stereo not shown) 19.4 10^3 cm^-1 M^-1

Please report the measured EXTINCTION COEFFICIENT, ACID MAXIMA (second) for CCN(CC)c1ccc2c(c1)Oc1c(ccc3cc(O)ccc13)C21OC(=O)c2ccc(C(=O)O)cc21 (stereo not shown) 29.7 10^3 cm^-1 M^-1

Determine its reported EXTINCTION COEFFICIENT, ACID MAXIMA (second): CCN(CC)c1ccc2c(c1)Oc1c(ccc3cc(O)ccc13)C21OC(=O)c2ccccc21 (stereo not shown) 24.4 10^3 cm^-1 M^-1
